- Tested on: Pyricularia oryzae
- measurement.protocol: whole plant or invertebrate
- Format: in vivo
- condition.set: Pyricularia oryzae, 120 h, read-out: disease control rating, Ex. E, 20 PPM
quantity.measured: pest or weed control at 20 ppm (%)

compound="C=C(c1ccc(S(C)(=O)=O)cc1)C(O)(Cn1cncn1)c1ccc(F)cc1 (stereo not shown) [Example 177]" value_units=% observed_measurement=0
compound="C=C(c1cccc(Cl)c1)C(O)(Cn1cncn1)c1ccc(F)cc1F (stereo not shown) [Example 42]" value_units=% observed_measurement=15
compound="OC(Cn1cncn1)(C(=Cc1ccccc1)c1ccccc1)c1ccc(F)cc1 (stereo not shown) [Example 291]" value_units=% observed_measurement=1
compound="C=C(c1ccc(F)cc1)C(O)(CC)Cn1cncn1 (stereo not shown) [Example 668]" value_units=% observed_measurement=1

----------
Catalogue of compounds with associated pest or weed control at 100 ppm
- Test system: Plasmorpara viticola
- measurement.protocol: Example I grape downy mildew
- Format: in vivo
- condition.set: read-out: disease control rating, Ex. I
quantity.measured: pest or weed control at 100 ppm (%)

compound="C=C(c1ccc(F)cc1)C(O)(Cn1cncn1)c1ccc(OC)cc1 (centres unmarked)" system_name="Plasmorpara viticola" value_units=% observed_measurement=39
compound="C=C(c1ccccc1)C(O)(Cn1cncn1)c1ccc(F)cc1 (centres unmarked)" system_name="Plasmorpara viticola" value_units=% observed_measurement=0
compound="OC(Cn1cncn1)(C(=Cc1ccccc1)c1ccccc1)c1ccc(F)cc1 (centres unmarked)" system_name="Plasmorpara viticola" value_units=% observed_measurement=78
compound="C=C(c1ccc(F)cc1)C(O)(Cn1ncnc1SCC#N)c1ccccc1F (centres unmarked)" system_name="Plasmorpara viticola" value_units=% observed_measurement=79
compound="C=C(c1ccccc1Cl)C(O)(Cn1cncn1)c1ccccc1F (centres unmarked)" system_name="Plasmorpara viticola" value_units=% observed_measurement=0
compound="N#CC[S+]([O-])c1ncnn1CC(O)(c1ccccc1F)C1(c2ccc(F)cc2)CO1 (centres unmarked)" system_name="Plasmorpara viticola" value_units=% observed_measurement=46
compound="C=C(CO)C(O)(Cn1cncn1)c1ccccc1 (centres unmarked)" system_name="Plasmorpara viticola" value_units=% observed_measurement=0
compound="C=C(c1ccc(F)cc1F)C(O)(Cn1cncn1)c1ccc(F)cc1 (centres unmarked)" system_name="Plasmorpara viticola" value_units=% observed_measurement=0

----------
Catalogue of compounds with associated responders at 150 mg/kg
- Tested on: Candida albicans ATCC 11651
- measurement.protocol: In vivo systemic Candida infection in mice, primary assay
- Design: species or system Candida albicans; CF-1 female mice
- condition.set: Candida albicans, ATCC11651, 336 h, 150 mg/kg per day, day 14; read-out: % Survival
quantity.measured: responders at 150 mg/kg (%)

compound="C=C(c1ccc(F)cc1)C(Cn1cncn1)(OC(C)=O)c1ccc(F)cc1 (stereo not shown)" quantity_measured="responders at 150 mg/kg" observed_measurement=100
compound="C=C(c1ccccc1)C(O)(Cn1cncn1)c1ccc(Cl)cc1 (stereo not shown)" quantity_measured="responders at 150 mg/kg" observed_measurement=100
compound="C=C(c1ccc(Cl)cc1Cl)C(O)(Cn1cncn1)c1ccc(F)cc1 (stereo not shown)" quantity_measured="responders at 150 mg/kg" observed_measurement=100
compound="C=C(c1ccc(C(F)(F)F)cc1)C(O)(Cn1cncn1)c1ccc(Cl)cc1 (stereo not shown)" quantity_measured="responders at 150 mg/kg" observed_measurement=100
compound="C=C(c1ccc(F)cc1)C(O)(Cn1cncn1)c1ccc(F)cc1 (stereo not shown)" quantity_measured="responders at 150 mg/kg" observed_measurement=100
compound="C=C(c1ccc(F)cc1)C(Cn1cncn1)(OC)c1ccc(F)cc1 (stereo not shown)" quantity_measured="responders at 150 mg/kg" observed_measurement=80
compound="C=C(c1ccc(Cl)cc1)C(O)(Cn1cncn1)c1ccc(F)cc1F (stereo not shown)" quantity_measured="responders at 150 mg/kg" observed_measurement=90

The reported measurements were obtained from patent US4965280A.
